Source listed as patent US20260116922A1.

Provide the recorded SIF stability [fold OT] for the entries that follow.
experiment: Stability in simulated intestinal fluid (SIF); conditions: relative stability compared with SIF stability of oxytocin (8±1 min); SIF pH 6.8, pancreatin, 37° C.
*1 amine or outer side, *2 acyl side, *3 side chain or, on linkers, in order; H or OH if unused. Where a SMILES comes first, the peptide text is derived from it. Bridges are numbered along the chain shown (N, C = ends). [ ]: non-standard residue; d: D form. N(4-F-Bzl)Gly = O=C(O)CNCc1ccc(F)cc1; αMeV = CC(C)[C@](C)(N)C(=O)O; X1 = O=C(CCC[*:2])[*:1]; Dap = NC[C@H](N)C(=O)O

{"molecule": "CC[C@H](C)[C@@H]1NC(=O)[C@H](Cc2ccc(O)cc2)NC(=O)[C@@H](N)CSSC[C@@H](C(=O)N2CCC[C@H]2C(=O)N[C@H](CC(=O)NCC(N)=O)CC(C)C)NC(=O)[C@H](CC(N)=O)NC(=O)[C@H](CCC(N)=O)NC1=O", "SIF stability [fold OT]": "10-100 fold OT"}

Look at each molecule and report its SIF stability [fold OT].
1. CC(=O)NCCCC[C@H](NC(=O)[C@@H]1CCCN1C(=O)[C@@H]1CSCCCC(=O)N[C@@H](Cc2ccc(O)cc2)C(=O)N[C@@](C)(C(C)C)C(=O)N[C@@H](CCC(N)=O)C(=O)N[C@@H](CC(N)=O)C(=O)N1)C(=O)NCC(N)=O [Compound 19] (Y[αMeV]QNCPK(Ac)G-NH2; linker N-5 via X1)
2. CC[C@H](C)[C@@H]1NC(=O)[C@H](Cc2ccc(OC)cc2)NC(=O)CCCSC[C@@H](C(=O)N(CC(=O)N[C@@H](CNC(C)=O)C(=O)NCC(N)=O)Cc2ccc(F)cc2)NC(=O)[C@H](CC(N)=O)NC(=O)[C@H](CCC(N)=O)NC1=O [Compound 8] (Y(Me)IQNC[N(4-F-Bzl)Gly][Dap](Ac)G-NH2; linker N-5 via X1)

Found:
1. >100 fold OT
2. 10-100 fold OT
